- SYSTEM_UNDER_TEST: CCL7_HUMAN
- EXPERIMENTAL_DETAILS: BLI
Classes by Kd: one: < 9 nM; two: ≥ 9 nM and < 40 nM; three: ≥ 40 nM

BINDER: P1181_AMBMA (other) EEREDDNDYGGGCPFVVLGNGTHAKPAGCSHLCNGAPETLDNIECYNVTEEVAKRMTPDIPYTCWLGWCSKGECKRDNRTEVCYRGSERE
ASSIGNED_LABEL: two
--
BINDER: P1182_AMBMA (other) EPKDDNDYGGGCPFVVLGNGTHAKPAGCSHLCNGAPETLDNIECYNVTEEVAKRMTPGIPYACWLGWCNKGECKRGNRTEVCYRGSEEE
ASSIGNED_LABEL: two
--
BINDER: P467_RHIPU (other) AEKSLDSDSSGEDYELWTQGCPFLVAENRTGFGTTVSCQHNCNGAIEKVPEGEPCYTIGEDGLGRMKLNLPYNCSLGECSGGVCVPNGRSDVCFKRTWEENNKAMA
ASSIGNED_LABEL: one
--
BINDER: P1183_AMBTR (other) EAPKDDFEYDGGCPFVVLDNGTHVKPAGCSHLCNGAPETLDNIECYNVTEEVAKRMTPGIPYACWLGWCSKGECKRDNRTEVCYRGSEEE
ASSIGNED_LABEL: one
--
BINDER: P546_AMBCA (other) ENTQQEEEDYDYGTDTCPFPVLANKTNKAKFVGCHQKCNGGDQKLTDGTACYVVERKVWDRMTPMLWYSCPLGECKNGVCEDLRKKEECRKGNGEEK
ASSIGNED_LABEL: three

stdin: Sort P1180_AMBTR (other) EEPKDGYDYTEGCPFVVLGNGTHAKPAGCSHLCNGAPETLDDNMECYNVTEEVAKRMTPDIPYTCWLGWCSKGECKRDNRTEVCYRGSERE into one of the categories.
stdout: three

stdin: Moving on to P1243_AMBAM (other) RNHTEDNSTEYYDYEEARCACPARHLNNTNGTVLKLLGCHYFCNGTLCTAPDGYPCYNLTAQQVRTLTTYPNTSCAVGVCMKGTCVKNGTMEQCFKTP
stdout: one

stdin: Would you mind doing P985_AMBPA (other) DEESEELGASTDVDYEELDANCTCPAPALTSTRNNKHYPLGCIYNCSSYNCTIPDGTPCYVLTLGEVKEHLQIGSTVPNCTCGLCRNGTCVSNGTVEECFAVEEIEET as well?
stdout: three

stdin: Queued: P974_AMBCA (other) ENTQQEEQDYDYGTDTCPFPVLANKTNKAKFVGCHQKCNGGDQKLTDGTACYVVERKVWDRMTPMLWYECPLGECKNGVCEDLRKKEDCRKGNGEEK
stdout: three

stdin: Subsequent entry: P672_RHIPU (other) VCEVSEQEGVGEDNATEDEDYEDFFKPVTCYFANSTVGPLRPPNCTVVCTNNTAWWNDTKSDGGHCYSEYRPEKRTHSREIYNCTIGVCGNGTCIANHTYADCW
stdout: two

stdin: Also P983_AMBPA (other) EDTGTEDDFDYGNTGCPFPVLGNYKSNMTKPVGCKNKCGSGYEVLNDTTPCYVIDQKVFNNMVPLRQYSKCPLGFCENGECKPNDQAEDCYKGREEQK ?
stdout: two

stdin: And for P991_AMBCA (other) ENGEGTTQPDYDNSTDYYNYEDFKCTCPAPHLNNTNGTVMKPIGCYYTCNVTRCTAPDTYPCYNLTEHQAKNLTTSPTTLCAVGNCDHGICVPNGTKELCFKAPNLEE ?
stdout: one

All figures here come from patent US20220175942A1.
